Target: Sander vitreus Sandercyanin fluorescent protein (SFP) variant SFP-A137E, SEQ ID NO:4 (Sander vitreus, UniProt A0A1D5B367, A118E)
Sequence (A0A1D5B367 entry or part of it A118E): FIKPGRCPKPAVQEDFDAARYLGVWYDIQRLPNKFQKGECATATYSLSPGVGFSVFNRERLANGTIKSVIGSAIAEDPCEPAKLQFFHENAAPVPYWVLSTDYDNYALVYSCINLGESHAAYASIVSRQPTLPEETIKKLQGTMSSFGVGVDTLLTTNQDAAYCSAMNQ
Experiment: Biliverdin binding of monomeric SFP variant
pKd: −log10 of the molar value.
MEASURED QUANTITY: pKd

Input C=CC1=C(C)/C(=C/C2=NC(=C\c3[nH]c(/C=C4\NC(=O)C(C)=C4C=C)c(C)c3CCC(=O)O)/C(CCC(=O)O)=C2C)NC1=O , output reported pKd. 5.30 to 5.52

----------
Target: Sander vitreus Sandercyanin fluorescent protein (SFP) variant SFP-L135E (mSFP2), SEQ ID NO:3 (Sander vitreus, UniProt A0A1D5B367, L116E)
Sequence (A0A1D5B367 entry or part of it L116E): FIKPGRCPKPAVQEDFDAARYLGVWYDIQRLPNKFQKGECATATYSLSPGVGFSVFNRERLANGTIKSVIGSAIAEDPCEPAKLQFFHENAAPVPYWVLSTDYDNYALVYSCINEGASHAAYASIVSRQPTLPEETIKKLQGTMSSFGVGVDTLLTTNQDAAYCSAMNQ
Assay: Biliverdin binding of monomeric SFP variant
pKd: −log10 of the molar value.
MEASURED QUANTITY: pKd

Input C=CC1=C(C)/C(=C/C2=NC(=C\c3[nH]c(/C=C4\NC(=O)C(C)=C4C=C)c(C)c3CCC(=O)O)/C(CCC(=O)O)=C2C)NC1=O , output reported pKd. 4.92 to 5.40

Where do these numbers come from? They come from patent US10962528B2.
